Biological target: Motilin receptor (Oryctolagus cuniculus)
Assay: Activity at rabbit duodenum motilin receptor by tissue contractility assay
Type: functional
readout name: pIC50
In simple prose, pIC50 is minus the logarithm base ten of a concentration in moles per litre.

compound	study target	pIC50
O=C(c1ccc(F)cc1)N(CC1CCCC(N(Cc2ccccc2)C(=O)C(Cl)(Cl)Cl)C1)c1cccc(OCCN2CCCC2)c1 (racemic)	Motilin receptor (Oryctolagus cuniculus)	7.57

Read the next record carefully.
Req: Which pIC50 is listed for O=C(c1ccc(F)cc1)N(CC1CCCC(N(Cc2cccc(Cl)c2)C(=O)C(Cl)(Cl)Cl)C1)c1cccc(OCCN2CCCCC2)c1 (racemic) ?
Resp: 7.68

* * *

Below is a list of entries, each paired with its recorded IC50 value.
Molecular target: Motilin receptor (Oryctolagus cuniculus, UniProt A5A4K8)
Sequence (A5A4K8 whole entry): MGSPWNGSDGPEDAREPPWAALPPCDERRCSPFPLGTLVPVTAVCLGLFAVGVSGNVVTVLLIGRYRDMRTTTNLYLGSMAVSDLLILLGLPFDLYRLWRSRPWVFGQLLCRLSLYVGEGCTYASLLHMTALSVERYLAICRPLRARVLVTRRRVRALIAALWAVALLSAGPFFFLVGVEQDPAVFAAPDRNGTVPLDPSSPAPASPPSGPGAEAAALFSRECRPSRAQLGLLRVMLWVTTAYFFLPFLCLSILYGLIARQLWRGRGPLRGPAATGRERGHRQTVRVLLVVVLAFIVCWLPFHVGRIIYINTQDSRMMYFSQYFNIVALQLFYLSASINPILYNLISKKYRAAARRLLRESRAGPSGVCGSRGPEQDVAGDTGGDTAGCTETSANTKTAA
Test: Inhibition of [125]I-motilin binding to rabbit motilin receptor
# number only, unit nM dropped from output

Record excerpt, results attached:
compound	readout name	result value
O=C(c1ccc(F)cc1)N(CC1CCCC(N(Cc2cccc(Cl)c2)C(=O)C(Cl)(Cl)Cl)C1)c1cccc(OCCN2CCCC2)c1 (racemic)	IC50	58
O=C(c1ccc(F)cc1)N(CC1CCCC(N(Cc2cccc([N+](=O)[O-])c2)C(=O)C(Cl)(Cl)Cl)C1)c1cccc(OCCN2CCCC2)c1 (stereo not drawn)	IC50	14

Read the next record carefully.
Req: Which IC50 is listed for CC(C)(C)C(=O)N(Cc1ccccc1)C1CCCC(CN(C(=O)c2ccc(F)cc2)c2cccc(OCCN3CCOCC3)c2)C1 (racemic) ?
Resp: 772

* * *

Target: Motilin receptor (Homo sapiens, UniProt O43193)
Sequence (O43193 whole entry): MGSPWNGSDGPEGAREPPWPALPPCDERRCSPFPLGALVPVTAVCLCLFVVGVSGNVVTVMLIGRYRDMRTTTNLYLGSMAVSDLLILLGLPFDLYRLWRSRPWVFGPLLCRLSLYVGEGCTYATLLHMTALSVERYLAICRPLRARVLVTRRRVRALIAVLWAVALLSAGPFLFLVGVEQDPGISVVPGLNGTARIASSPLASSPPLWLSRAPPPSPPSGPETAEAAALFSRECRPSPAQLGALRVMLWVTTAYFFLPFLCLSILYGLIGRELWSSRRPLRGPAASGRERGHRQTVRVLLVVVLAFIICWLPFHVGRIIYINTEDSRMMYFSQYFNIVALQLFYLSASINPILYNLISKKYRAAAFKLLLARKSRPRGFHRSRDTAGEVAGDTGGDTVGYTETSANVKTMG
Assay: Activity at human motilin receptor transfected in HEK293 cells assessed as inhibition of motilin-induced intracellular calcium mobilization
pIC50: −log10 of the molar value.
// NOT MET strictly below 6 in pIC50; MET otherwise

Solved cases (4 shown):
molecule	study target	answer label
O=C(c1ccc(F)cc1)N(CC1CCCC(N(Cc2cccc([N+](=O)[O-])c2)C(=O)C(Cl)(Cl)Cl)C1)c1cccc(OCCN2CCCC2)c1 (stereo unspecified)	Motilin receptor (Homo sapiens, UniProt O43193)	MET
O=C(c1ccc(F)cc1)N(CC1CCCC(N(Cc2cccc(Cl)c2)C(=O)C(Cl)(Cl)Cl)C1)c1cccc(OCCN2CCCCC2)c1 (racemic)	Motilin receptor (Homo sapiens, UniProt O43193)	MET
O=C(c1ccc(F)cc1)N(CC1CCCC(N(Cc2cccc(Cl)c2)C(=O)C(Cl)(Cl)Cl)C1)c1cccc(OCCN2CCCC2)c1 (racemic)	Motilin receptor (Homo sapiens, UniProt O43193)	MET
CC(C)(C)C(=O)N(Cc1ccccc1)[C@H]1CCC[C@@H](CN(C(=O)c2ccc(F)cc2)c2cccc(OCCN3CCCC3)c2)C1	Motilin receptor (Homo sapiens, UniProt O43193)	NOT MET

Below: the item to evaluate.
Req: Quick check: does CC(C)(C)C(=O)N(Cc1ccccc1)[C@@H]1CCC[C@H](CN(C(=O)c2ccc(F)cc2)c2cccc(OCCN3CCCC3)c2)C1 have pIC50 greater than or equal to 6?
Resp: MET

* * *

Molecular target: UniProtKB A5A4K8
Experiment: Inhibition of [125]I-motilin binding to rabbit motilin receptor
readout name: pIC50
In simple prose, pIC50 is minus the logarithm base ten of a concentration in moles per litre.

Record excerpt, results attached:
molecule	study target	readout name	result value
O=C(Nc1ccccc1)N(CC1CCCC(N(Cc2cccc([N+](=O)[O-])c2)C(=O)C(Cl)(Cl)Cl)C1)c1cccc(OCCN2CCOCC2)c1 (racemic)	UniProtKB A5A4K8	pIC50	7.46
COc1cccc(C(=O)N(Cc2cccc(Cl)c2)C2CCCC(CN(C(=O)Nc3ccccc3)c3cccc(OCCN4CCOCC4)c3)C2)c1 (racemic)	UniProtKB A5A4K8	pIC50	6.19

Read the next record carefully.
Req: Which pIC50 is listed for O=C(Nc1ccccc1)N(CC1CCCC(N(Cc2ccccc2)C(=O)C(Cl)(Cl)Cl)C1)c1cccc(OCCN2CCOCC2)c1 (racemic) ?
Resp: 6.02
